The origin of these recorded values is ChEMBL document CHEMBL1141357.

Reported LC50 values for a set of molecules
System: Artemia salina
Experiment: Toxicity against brine shrimp by lethality test
Type: organism-based
Settings: in vivo

{"columns": ["SMILES ENTRY", "MEASUREMENT UNITS", "LC50"],
 "data": [
  ["COc1ccc(CCc2c(Cl)ccc(O)c2Cl)cc1", "ppm", 0.44],
  ["COc1ccc(CCc2c(Cl)cc(Cl)c(O)c2Cl)cc1Cl", "ppm", 1.71],
  ["Oc1ccc(CCc2c(Cl)cc(Cl)c(O)c2Cl)cc1Cl", "ppm", 2.39],
  ["COc1ccc(CCc2c(Cl)ccc(O)c2Cl)cc1Cl", "ppm", 0.42],
  ["CC(=O)N1CCN(c2ccc(OC[C@H]3CO[C@](Cn4ccnc4)(c4ccc(Cl)cc4Cl)O3)cc2)CC1", "ppm", 14.9]
]}
